The values you see were collected from paper PMC10776687.

ASSAY_SYSTEM: human serotonin transporter (SERT) (Homo sapiens)
Construct: gene SLC6A4; human WT SERT, N-terminal eYFP fusion, stably expressed in HEK293 cells
Sequence (P31645 whole entry, the tested form may be a part): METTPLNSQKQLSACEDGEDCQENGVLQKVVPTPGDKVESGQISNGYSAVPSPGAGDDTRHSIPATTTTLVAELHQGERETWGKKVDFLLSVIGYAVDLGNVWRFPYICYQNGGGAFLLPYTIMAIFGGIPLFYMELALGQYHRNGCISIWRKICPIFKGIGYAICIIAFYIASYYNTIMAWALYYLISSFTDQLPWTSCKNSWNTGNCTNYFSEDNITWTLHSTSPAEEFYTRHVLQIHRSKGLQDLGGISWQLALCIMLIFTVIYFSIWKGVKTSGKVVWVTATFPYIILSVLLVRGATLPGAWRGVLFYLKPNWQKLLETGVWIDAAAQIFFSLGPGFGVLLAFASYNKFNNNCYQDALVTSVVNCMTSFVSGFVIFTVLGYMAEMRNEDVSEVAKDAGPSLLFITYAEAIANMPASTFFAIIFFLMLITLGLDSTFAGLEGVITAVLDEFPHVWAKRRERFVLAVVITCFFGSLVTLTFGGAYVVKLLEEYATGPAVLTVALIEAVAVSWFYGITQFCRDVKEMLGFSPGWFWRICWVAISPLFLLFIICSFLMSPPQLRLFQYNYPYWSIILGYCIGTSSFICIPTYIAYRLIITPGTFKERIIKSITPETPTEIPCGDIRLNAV
PROTOCOL_NOTES: [3H]5HT uptake inhibition in HEK293 cells; whole-cell patch clamp (partial substrate, kon/koff)
Assay type: cell-based
EXPERIMENTAL_ENDPOINT: pIC50
Numbers only, as −log10 of the molar value.

# input Hi! What's the reported pIC50 for NCCCCc1c[nH]c2ccc(O)cc12 [B-5HT, butyl (B)-5HT] on human serotonin transporter (SERT) (Homo sapiens)?
# output 6.57

---

ASSAY_SYSTEM: human serotonin transporter (SERT) (Homo sapiens)
Construct: gene SLC6A4; human WT SERT, N-terminal eYFP fusion, stably expressed in HEK293 cells
PROTOCOL_NOTES: [3H]5HT uptake inhibition in HEK293 cells; whole-cell patch clamp (partial substrate, kon/koff); efflux
Type: cell-based
EXPERIMENTAL_ENDPOINT: IC50 (nM)
Give bare numbers, in nM.

# input Look up IC50: NCCCc1c[nH]c2ccc(O)cc12 [P-5HT, propyl (P)-5HT]
# output 590
